Origin of values: patent US20170052184A1

Entries and their measured kon follow.
# target_or_system: T1, HCV Core 134-171-TT Peptide (hepatitis C virus (HCV-1 numbering) …)
# T1 construct: also called ALRZ-9 peptide
# measurement_description: SPR, captured mAb, peptide analyte
Numbers only; they are read as M⁻¹ s⁻¹.

binder	kon (M⁻¹ s⁻¹)
HCV 208A-605 (antibody, V domains shown) VH: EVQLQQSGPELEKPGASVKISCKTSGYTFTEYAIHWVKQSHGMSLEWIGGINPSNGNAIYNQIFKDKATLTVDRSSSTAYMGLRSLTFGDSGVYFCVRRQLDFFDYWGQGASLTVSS VL: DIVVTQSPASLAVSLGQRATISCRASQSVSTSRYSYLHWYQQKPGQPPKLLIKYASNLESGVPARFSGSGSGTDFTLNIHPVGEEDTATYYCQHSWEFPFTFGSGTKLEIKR	870000
HCV 208A-877 (antibody, V domains shown) VH: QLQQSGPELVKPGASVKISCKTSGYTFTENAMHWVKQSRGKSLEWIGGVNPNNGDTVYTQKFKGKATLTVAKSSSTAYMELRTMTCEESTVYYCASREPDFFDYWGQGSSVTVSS VL: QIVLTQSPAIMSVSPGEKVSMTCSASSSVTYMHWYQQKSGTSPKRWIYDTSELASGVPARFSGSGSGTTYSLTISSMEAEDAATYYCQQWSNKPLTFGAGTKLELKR	1.1e+06

Entry HCV 208A-293 (antibody, V domains shown) VH: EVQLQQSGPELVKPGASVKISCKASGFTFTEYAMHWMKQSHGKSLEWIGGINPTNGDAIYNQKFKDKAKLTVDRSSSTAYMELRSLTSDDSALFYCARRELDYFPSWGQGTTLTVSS VL: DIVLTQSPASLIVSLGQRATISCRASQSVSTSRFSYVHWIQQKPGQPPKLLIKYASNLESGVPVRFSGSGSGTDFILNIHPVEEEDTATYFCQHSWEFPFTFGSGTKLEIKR ; kon = 2.1e+06
